Tested on: N. gonorrhoeae clinical isolates
Assay: MIC, agar dilution (CLSI)
Assay type: cell-based, Neisseria gonorrhoeae
Conditions: Neisseria gonorrhoeae, strain CDC16 (GCREF2012 012); read-out: MIC
Listed here are molecules together with their documented MIC.

{"columns": ["item_smiles", "target_or_system", "unit_spec", "MIC"],
 "data": [
  ["C=CC1=C(C(=O)O)N2C(=O)[C@@H](NC(=O)/C(=N\\OCC(=O)O)c3csc(N)n3)[C@H]2SC1", "N. gonorrhoeae clinical isolates", "µg/mL", 4],
  ["CO/N=C(\\C(=O)N[C@@H]1C(=O)N2C(C(=O)O)=C(CSc3nc(=O)c(=O)[nH]n3C)CS[C@H]12)c1csc(N)n1", "N. gonorrhoeae clinical isolates", "µg/mL", 0.063],
  ["CC[C@H]1OC(=O)[C@H](C)[C@@H](O[C@H]2C[C@@](C)(OC)[C@@H](O)[C@H](C)O2)[C@H](C)[C@@H](O[C@@H]2O[C@H](C)C[C@H](N(C)C)[C@H]2O)[C@](C)(O)C[C@@H](C)CN(C)[C@H](C)[C@@H](O)[C@]1(C)O", "N. gonorrhoeae clinical isolates", "µg/mL", 0.25],
  ["CNc1cc(F)cc2c1[nH]c1nc(Oc3cnc(C)nc3)nc(N3CCC4(CC3)CO[C@@H](CO)C4)c12", "N. gonorrhoeae clinical isolates", "µg/mL", 0.0078]
]}

* * *

System: N. gonorrhoeae clinical isolates
Test: MIC, agar dilution (CLSI)
Type: cell-based, Neisseria gonorrhoeae
Settings: Neisseria gonorrhoeae, strain CDC38 (GCREF2012 035); read-out: MIC

{"columns": ["item_smiles", "MIC"],
 "data": [
  ["CNc1cc(F)cc2c1[nH]c1nc(Oc3cnc(C)nc3)nc(N3CCC4(CC3)CO[C@@H](CO)C4)c12", "0.0039 mg/L"],
  ["CO/N=C(\\C(=O)N[C@@H]1C(=O)N2C(C(=O)O)=C(CSc3nc(=O)c(=O)[nH]n3C)CS[C@H]12)c1csc(N)n1", "0.031 mg/L"],
  ["CC[C@H]1OC(=O)[C@H](C)[C@@H](O[C@H]2C[C@@](C)(OC)[C@@H](O)[C@H](C)O2)[C@H](C)[C@@H](O[C@@H]2O[C@H](C)C[C@H](N(C)C)[C@H]2O)[C@](C)(O)C[C@@H](C)CN(C)[C@H](C)[C@@H](O)[C@]1(C)O", "0.25 mg/L"],
  ["C=CC1=C(C(=O)O)N2C(=O)[C@@H](NC(=O)/C(=N\\OCC(=O)O)c3csc(N)n3)[C@H]2SC1", "0.063 mg/L"]
]}

* * *

Listed here are compounds together with their documented MIC.
Tested on: N. gonorrhoeae clinical isolates
Assay: MIC, agar dilution (CLSI)
Type: cell-based, Neisseria gonorrhoeae
Details: Neisseria gonorrhoeae, strain CDC30 (GCREF2012 027); read-out: MIC
observed_property: MIC (µg/mL)

{"columns": ["item_smiles", "observed_value"],
 "data": [
  ["CO/N=C(\\C(=O)N[C@@H]1C(=O)N2C(C(=O)O)=C(CSc3nc(=O)c(=O)[nH]n3C)CS[C@H]12)c1csc(N)n1", 0.031],
  ["C=CC1=C(C(=O)O)N2C(=O)[C@@H](NC(=O)/C(=N\\OCC(=O)O)c3csc(N)n3)[C@H]2SC1", 0.125],
  ["CNc1cc(F)cc2c1[nH]c1nc(Oc3cnc(C)nc3)nc(N3CCC4(CC3)CO[C@@H](CO)C4)c12", 0.0078],
  ["CC[C@H]1OC(=O)[C@H](C)[C@@H](O[C@H]2C[C@@](C)(OC)[C@@H](O)[C@H](C)O2)[C@H](C)[C@@H](O[C@@H]2O[C@H](C)C[C@H](N(C)C)[C@H]2O)[C@](C)(O)C[C@@H](C)CN(C)[C@H](C)[C@@H](O)[C@]1(C)O", 0.25]
]}

* * *

Listed here are compounds together with their documented half-life at 1 μM.
Test: Liver microsome stability, mouse
Format: in vitro ADME
Conditions: male, CD-1, mouse, liver microsomes, pH 7.4; read-out: MLM t1/2

{"columns": ["item_smiles", "half-life at 1 μM / min"],
 "data": [
  ["CNc1cc(F)cc2c1[nH]c1nc(Oc3cnc(C)nc3)nc(N3CCC4(CC3)CO[C@@H](CO)C4)c12", 58.2],
  ["CNc1cc(F)cc2c1[nH]c1nc(Oc3cnc(C)nc3)nc(N3CCC4(CC3)CO[C@@H](COP(=O)(O)O)C4)c12", 1390]
]}

src = paper PMC9487510
